# measuredOn: DDR1 (Homo sapiens)
# Sequence (Q08345 19-913): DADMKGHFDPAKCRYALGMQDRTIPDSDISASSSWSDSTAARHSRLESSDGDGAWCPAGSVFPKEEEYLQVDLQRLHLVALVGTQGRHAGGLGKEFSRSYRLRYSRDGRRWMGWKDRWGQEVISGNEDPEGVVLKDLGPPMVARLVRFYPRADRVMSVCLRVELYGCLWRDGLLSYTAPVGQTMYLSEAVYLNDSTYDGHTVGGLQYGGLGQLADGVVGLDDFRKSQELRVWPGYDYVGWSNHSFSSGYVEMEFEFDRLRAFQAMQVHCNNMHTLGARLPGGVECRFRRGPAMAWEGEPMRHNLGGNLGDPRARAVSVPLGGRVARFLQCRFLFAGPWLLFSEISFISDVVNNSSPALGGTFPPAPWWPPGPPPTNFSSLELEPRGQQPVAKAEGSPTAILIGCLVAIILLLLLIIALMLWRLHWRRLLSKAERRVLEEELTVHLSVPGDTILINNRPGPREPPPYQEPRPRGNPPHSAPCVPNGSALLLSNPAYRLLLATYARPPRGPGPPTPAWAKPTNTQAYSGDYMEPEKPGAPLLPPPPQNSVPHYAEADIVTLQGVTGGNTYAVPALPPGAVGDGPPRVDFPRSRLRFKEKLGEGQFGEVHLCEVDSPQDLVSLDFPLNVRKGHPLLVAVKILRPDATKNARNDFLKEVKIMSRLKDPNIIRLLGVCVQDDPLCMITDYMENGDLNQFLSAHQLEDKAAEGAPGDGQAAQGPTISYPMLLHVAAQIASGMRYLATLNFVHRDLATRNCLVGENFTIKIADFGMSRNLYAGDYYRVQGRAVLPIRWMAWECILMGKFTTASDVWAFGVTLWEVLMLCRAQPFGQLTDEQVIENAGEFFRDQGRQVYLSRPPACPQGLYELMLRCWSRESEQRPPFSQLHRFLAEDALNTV
measuredParameter: IC50 (nM)
Give the quantity in nM, number only.

Exam item: Please indicate IC50 recorded for C[C@@H](N)COc1ccc(-c2cnc3ccc(N[C@H](C)c4cccc(F)c4)nn23)cc1.O=C(O)CCCCC(=O)O [DS-6051b]
Marked response: 24.7

---

# System: parental Ba/F3 cells (with IL-3)
# assay: CellTiter-Glo cell viability assay
# Type: cell-based, murine
# runConditions: 72 h, medium containing IL-3; read-out: IC50
measuredParameter: IC50

Exam item: Please indicate IC50 recorded for C[C@@H](N)COc1ccc(-c2cnc3ccc(N[C@H](C)c4cccc(F)c4)nn23)cc1.O=C(O)CCCCC(=O)O [DS-6051b]
Marked response: > 1000 nM

---

# Test system: Ba/F3-TPM3-NTRK1 cells (WT)
# assay: CellTiter-Glo cell viability assay
# Format: cell-based, murine
# runConditions: Mus musculus, 72 h, read-out: IC50
pIC50 for assorted molecules
Reminder that pIC50 is minus the log10 of a molar concentration.

Cc1cc(Nc2ncc(Cl)c(Nc3ccccc3S(=O)(=O)C(C)C)n2)c(OC(C)C)cc1C1CCNCC1 [ceritinib]; 6.22
CCc1cc2c(cc1N1CCC(N3CCOCC3)CC1)C(C)(C)c1[nH]c3cc(C#N)ccc3c1C2=O [alectinib]; 6.55
C[C@@H](N)COc1ccc(-c2cnc3ccc(N[C@H](C)c4cccc(F)c4)nn23)cc1.O=C(O)CCCCC(=O)O [DS-6051b]; 8.73

Here is the next item to consider.
Exam item: Please indicate pIC50 recorded for COc1cc(N2CCC(N3CCN(C)CC3)CC2)ccc1Nc1ncc(Cl)c(Nc2ccccc2P(C)(C)=O)n1 [brigatinib]
Marked response: 6.03

---

# measuredOn: TRKC (NTRK3) (Homo sapiens, UniProt Q16288)
# Construct: purchased Carna Biosciences, Inc. (Kobe, Japan); assay run by the vendor
# Sequence (Q16288 32-839): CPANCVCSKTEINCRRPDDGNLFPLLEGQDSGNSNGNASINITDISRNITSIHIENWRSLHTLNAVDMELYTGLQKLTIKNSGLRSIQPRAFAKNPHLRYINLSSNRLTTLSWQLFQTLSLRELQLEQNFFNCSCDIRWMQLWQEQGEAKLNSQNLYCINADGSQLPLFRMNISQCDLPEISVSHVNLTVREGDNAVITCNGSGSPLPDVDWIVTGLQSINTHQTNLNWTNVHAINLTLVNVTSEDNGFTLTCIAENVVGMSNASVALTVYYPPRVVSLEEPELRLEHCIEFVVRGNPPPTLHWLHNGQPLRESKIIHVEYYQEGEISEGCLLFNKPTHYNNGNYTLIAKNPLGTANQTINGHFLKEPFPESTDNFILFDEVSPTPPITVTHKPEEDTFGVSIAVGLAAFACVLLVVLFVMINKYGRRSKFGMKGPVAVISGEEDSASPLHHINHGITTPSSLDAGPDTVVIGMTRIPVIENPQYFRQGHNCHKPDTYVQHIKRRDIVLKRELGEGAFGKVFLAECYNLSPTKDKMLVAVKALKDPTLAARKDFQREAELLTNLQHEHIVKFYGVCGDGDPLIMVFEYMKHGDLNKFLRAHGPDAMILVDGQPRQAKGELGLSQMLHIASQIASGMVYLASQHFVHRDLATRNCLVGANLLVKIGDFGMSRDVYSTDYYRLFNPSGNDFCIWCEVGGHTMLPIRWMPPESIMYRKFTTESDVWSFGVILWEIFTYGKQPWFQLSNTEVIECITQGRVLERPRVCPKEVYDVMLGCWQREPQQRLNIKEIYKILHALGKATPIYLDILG
# assay: Kinase assay, ATP Km
# Format: biochemical
# runConditions: ATP: Km; read-out: IC50
measuredParameter: IC50

Exam item: Report its IC50 with TRKC (NTRK3) (Homo sapiens, UniProt Q16288) as the test system: C[C@@H](N)COc1ccc(-c2cnc3ccc(N[C@H](C)c4cccc(F)c4)nn23)cc1.O=C(O)CCCCC(=O)O [DS-6051b]
Marked response: 0.98 nM

---

# Test system: EML4-ALK WT induced Ba/F3 cells
# assay: CellTiter-Glo cell viability assay
# Assay type: cell-based, murine
# runConditions: Mus musculus, BaF3, 72 h, 72 h; read-out: IC50
IC50 for assorted compounds
Give the quantity in nM, number only.

As a guide, the following entries are already answered.
COc1cc(N2CCC(N3CCN(C)CC3)CC2)ccc1Nc1ncc(Cl)c(Nc2ccccc2P(C)(C)=O)n1; 1.89
Cc1cc(Nc2ncc(Cl)c(Nc3ccccc3S(=O)(=O)C(C)C)n2)c(OC(C)C)cc1C1CCNCC1; 0.44

Here is the next item to consider.
Exam item: Report its IC50 with EML4-ALK WT induced Ba/F3 cells as the test system: C[C@@H](N)COc1ccc(-c2cnc3ccc(N[C@H](C)c4cccc(F)c4)nn23)cc1.O=C(O)CCCCC(=O)O [DS-6051b]
Marked response: 46.6

---

# measuredOn: ALK (Homo sapiens)
measuredParameter: IC50 (nM)
Give the quantity in nM, number only.

Exam item: Report its IC50 with ALK (Homo sapiens) as the test system: C[C@@H](N)COc1ccc(-c2cnc3ccc(N[C@H](C)c4cccc(F)c4)nn23)cc1.O=C(O)CCCCC(=O)O [DS-6051b]
Marked response: 32.5

---

# measuredOn: NTRK2 (Homo sapiens)
# Sequence (Q16620 32-822): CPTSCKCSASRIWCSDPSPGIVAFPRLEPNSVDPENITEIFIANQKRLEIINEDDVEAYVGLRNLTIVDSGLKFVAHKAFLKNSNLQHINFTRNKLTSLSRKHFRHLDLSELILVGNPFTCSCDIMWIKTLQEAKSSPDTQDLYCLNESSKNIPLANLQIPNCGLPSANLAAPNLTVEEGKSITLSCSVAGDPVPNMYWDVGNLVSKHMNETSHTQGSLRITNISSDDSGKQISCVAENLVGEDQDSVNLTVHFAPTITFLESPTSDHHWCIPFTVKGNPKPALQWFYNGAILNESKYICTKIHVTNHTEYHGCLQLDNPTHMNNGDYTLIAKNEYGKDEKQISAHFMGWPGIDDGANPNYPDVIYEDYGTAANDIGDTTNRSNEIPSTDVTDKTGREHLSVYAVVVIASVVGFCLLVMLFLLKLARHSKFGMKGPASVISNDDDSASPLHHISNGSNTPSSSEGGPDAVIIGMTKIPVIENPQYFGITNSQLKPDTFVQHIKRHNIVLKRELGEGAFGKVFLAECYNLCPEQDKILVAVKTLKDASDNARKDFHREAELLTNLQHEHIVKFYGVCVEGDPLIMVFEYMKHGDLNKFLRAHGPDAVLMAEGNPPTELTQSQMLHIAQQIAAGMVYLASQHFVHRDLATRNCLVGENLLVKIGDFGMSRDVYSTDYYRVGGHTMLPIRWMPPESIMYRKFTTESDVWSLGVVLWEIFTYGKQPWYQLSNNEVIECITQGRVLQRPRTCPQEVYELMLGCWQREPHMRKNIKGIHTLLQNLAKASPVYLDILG
measuredParameter: IC50 (nM)
Give the quantity in nM, number only.

Exam item: Report its IC50 with NTRK2 (Homo sapiens) as the test system: C[C@@H](N)COc1ccc(-c2cnc3ccc(N[C@H](C)c4cccc(F)c4)nn23)cc1.O=C(O)CCCCC(=O)O [DS-6051b]
Marked response: 9.52

---

# Tested on: EML4-ALK I1171N induced Ba/F3 cells
# assay: CellTiter-Glo cell viability assay
# Format: cell-based, murine
# runConditions: Mus musculus, BaF3, 72 h; read-out: IC50
measuredParameter: IC50 (nM)
Give the quantity in nM, number only.

Exam item: Please indicate IC50 recorded for C[C@@H](N)COc1ccc(-c2cnc3ccc(N[C@H](C)c4cccc(F)c4)nn23)cc1.O=C(O)CCCCC(=O)O [DS-6051b]
Marked response: 938

Exam item: Please indicate IC50 recorded for "COc1cc(N2CCC(N3CCN(C)CC3)CC2)ccc1Nc1ncc(Cl)c(Nc2ccccc2P(C)(C)=O)n1"
Marked response: 22.1

Exam item: Please indicate IC50 recorded for "Cc1cc(Nc2ncc(Cl)c(Nc3ccccc3S(=O)(=O)C(C)C)n2)c(OC(C)C)cc1C1CCNCC1"
Marked response: 10.2

---

# measuredOn: NTRK3 (Homo sapiens, UniProt Q16288)
# Sequence (Q16288 32-839): as the sequence (Q16288 32-839) above
measuredParameter: IC50 (nM)
Give the quantity in nM, number only.

Exam item: Report its IC50 with NTRK3 (Homo sapiens, UniProt Q16288) as the test system: C[C@@H](N)COc1ccc(-c2cnc3ccc(N[C@H](C)c4cccc(F)c4)nn23)cc1.O=C(O)CCCCC(=O)O [DS-6051b]
Marked response: 9.28

---

# System: EML4-ALK I1171T induced Ba/F3 cells
# assay: CellTiter-Glo cell viability assay
# Type: cell-based, murine
# runConditions: Mus musculus, BaF3, 72 h; read-out: IC50
pIC50 for assorted compounds
Reminder that pIC50 is minus the log10 of a molar concentration.

C[C@@H](N)COc1ccc(-c2cnc3ccc(N[C@H](C)c4cccc(F)c4)nn23)cc1.O=C(O)CCCCC(=O)O [DS-6051b]; 6.34
Cc1cc(Nc2ncc(Cl)c(Nc3ccccc3S(=O)(=O)C(C)C)n2)c(OC(C)C)cc1C1CCNCC1 [ceritinib]; 8.81

Here is the next item to consider.
Exam item: Please indicate pIC50 recorded for COc1cc(N2CCC(N3CCN(C)CC3)CC2)ccc1Nc1ncc(Cl)c(Nc2ccccc2P(C)(C)=O)n1 [brigatinib]
Marked response: 8.15

---

# System: Ba/F3-CD74-ROS1 cells (WT)
# assay: CellTiter-Glo cell viability assay
# Assay type: cell-based, murine
# runConditions: Mus musculus, 72 h; read-out: IC50
IC50 for assorted compounds
Give the quantity in nM, number only.

As a guide, the following entries are already answered.
C[C@@H](N)COc1ccc(-c2cnc3ccc(N[C@H](C)c4cccc(F)c4)nn23)cc1.O=C(O)CCCCC(=O)O [DS-6051b]; 0.8
CCc1cc2c(cc1N1CCC(N3CCOCC3)CC1)C(C)(C)c1[nH]c3cc(C#N)ccc3c1C2=O; 303
Cc1cc(Nc2ncc(Cl)c(Nc3ccccc3S(=O)(=O)C(C)C)n2)c(OC(C)C)cc1C1CCNCC1; 11.2

Here is the next item to consider.
Exam item: Please indicate IC50 recorded for "COc1cc(N2CCC(N3CCN(C)CC3)CC2)ccc1Nc1ncc(Cl)c(Nc2ccccc2P(C)(C)=O)n1"
Marked response: 13.8

---

# Test system: Ba/F3 TPM3-NTRK1 G595L cells
# assay: CellTiter-Glo cell viability assay
# Assay type: cell-based, murine
# runConditions: Mus musculus, BaF3, 72 h
measuredParameter: pIC50
Reminder that pIC50 is minus the log10 of a molar concentration.

Exam item: Please indicate pIC50 recorded for C[C@@H](N)COc1ccc(-c2cnc3ccc(N[C@H](C)c4cccc(F)c4)nn23)cc1.O=C(O)CCCCC(=O)O [DS-6051b]
Marked response: 7.53

---

# measuredOn: ACK (Homo sapiens, UniProt Q07912)
# Construct: purchased Carna Biosciences, Inc. (Kobe, Japan); assay run by the vendor
# Sequence (Q07912 whole entry): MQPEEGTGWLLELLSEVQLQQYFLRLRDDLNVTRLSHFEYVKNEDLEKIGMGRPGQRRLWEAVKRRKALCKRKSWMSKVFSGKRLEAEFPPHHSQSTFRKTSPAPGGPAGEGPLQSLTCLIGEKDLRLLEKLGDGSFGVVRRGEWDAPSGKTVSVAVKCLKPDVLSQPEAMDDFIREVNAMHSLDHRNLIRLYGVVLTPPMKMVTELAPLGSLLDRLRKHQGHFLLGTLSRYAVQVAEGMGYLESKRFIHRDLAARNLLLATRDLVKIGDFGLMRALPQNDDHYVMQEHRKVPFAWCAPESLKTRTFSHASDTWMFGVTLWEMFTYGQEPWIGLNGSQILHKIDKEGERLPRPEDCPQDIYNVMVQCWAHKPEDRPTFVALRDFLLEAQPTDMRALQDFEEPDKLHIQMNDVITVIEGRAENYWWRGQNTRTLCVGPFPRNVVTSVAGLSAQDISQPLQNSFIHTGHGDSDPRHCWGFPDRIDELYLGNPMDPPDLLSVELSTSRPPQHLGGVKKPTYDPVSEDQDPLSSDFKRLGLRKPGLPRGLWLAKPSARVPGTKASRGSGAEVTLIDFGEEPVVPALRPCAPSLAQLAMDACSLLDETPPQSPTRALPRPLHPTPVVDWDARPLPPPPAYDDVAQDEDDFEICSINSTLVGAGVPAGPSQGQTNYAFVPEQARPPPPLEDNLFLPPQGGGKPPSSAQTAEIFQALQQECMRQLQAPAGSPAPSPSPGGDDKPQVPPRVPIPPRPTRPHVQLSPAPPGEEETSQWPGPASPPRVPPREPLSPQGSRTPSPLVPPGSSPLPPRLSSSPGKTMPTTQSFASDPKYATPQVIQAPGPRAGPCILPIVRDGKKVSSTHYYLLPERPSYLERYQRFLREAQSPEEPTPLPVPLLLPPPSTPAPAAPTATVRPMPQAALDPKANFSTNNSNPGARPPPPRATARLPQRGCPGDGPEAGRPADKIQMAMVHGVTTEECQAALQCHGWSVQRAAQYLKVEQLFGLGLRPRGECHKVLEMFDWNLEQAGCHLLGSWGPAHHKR
# assay: Kinase assay, 1 mM ATP
# Type: biochemical
# runConditions: ATP: 1 mM
measuredParameter: IC50 (nM)
Give the quantity in nM, number only.

Exam item: Please indicate IC50 recorded for C[C@@H](N)COc1ccc(-c2cnc3ccc(N[C@H](C)c4cccc(F)c4)nn23)cc1.O=C(O)CCCCC(=O)O [DS-6051b]
Marked response: 15.4

---

# System: Ba/F3 TPM3-NTRK1 D679G cells
# assay: CellTiter-Glo cell viability assay
# Type: cell-based, murine
# runConditions: Mus musculus, BaF3, 72 h
measuredParameter: pIC50
Reminder that pIC50 is minus the log10 of a molar concentration.

Exam item: Please indicate pIC50 recorded for C[C@@H](N)COc1ccc(-c2cnc3ccc(N[C@H](C)c4cccc(F)c4)nn23)cc1.O=C(O)CCCCC(=O)O [DS-6051b]
Marked response: 8.74

---

# measuredOn: UniProt:P10721
# Sequence (P10721 26-976): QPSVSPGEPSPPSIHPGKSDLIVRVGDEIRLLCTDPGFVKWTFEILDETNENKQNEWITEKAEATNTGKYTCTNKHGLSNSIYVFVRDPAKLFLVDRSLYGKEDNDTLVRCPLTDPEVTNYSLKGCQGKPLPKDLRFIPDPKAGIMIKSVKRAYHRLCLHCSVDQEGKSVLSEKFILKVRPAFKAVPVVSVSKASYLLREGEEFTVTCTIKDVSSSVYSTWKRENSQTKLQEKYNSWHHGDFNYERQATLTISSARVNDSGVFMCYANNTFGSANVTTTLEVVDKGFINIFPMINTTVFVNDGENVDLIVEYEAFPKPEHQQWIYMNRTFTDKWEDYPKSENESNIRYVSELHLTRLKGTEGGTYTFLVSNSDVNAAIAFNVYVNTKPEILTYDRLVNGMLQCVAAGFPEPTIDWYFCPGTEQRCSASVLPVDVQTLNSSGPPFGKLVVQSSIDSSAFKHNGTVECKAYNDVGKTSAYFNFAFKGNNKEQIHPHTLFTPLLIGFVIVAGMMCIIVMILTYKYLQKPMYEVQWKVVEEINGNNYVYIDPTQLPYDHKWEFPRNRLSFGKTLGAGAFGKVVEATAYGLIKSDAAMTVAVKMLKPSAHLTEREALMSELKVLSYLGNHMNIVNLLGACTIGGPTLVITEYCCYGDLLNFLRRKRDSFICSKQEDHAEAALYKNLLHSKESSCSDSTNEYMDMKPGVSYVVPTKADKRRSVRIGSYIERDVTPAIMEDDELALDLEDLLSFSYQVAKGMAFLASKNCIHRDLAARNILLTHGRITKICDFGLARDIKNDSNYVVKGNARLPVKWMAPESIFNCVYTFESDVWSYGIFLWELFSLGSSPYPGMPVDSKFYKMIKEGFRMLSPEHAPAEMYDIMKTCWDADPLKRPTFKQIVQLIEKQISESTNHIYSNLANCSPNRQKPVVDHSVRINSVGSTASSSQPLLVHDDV
measuredParameter: pIC50
Reminder that pIC50 is minus the log10 of a molar concentration.

Exam item: Please indicate pIC50 recorded for C[C@@H](N)COc1ccc(-c2cnc3ccc(N[C@H](C)c4cccc(F)c4)nn23)cc1.O=C(O)CCCCC(=O)O [DS-6051b]
Marked response: 6.46
